# Assay target: Tyro3 (Homo sapiens, UniProt Q06418)
# Sequence (Q06418 41-890, species assumed): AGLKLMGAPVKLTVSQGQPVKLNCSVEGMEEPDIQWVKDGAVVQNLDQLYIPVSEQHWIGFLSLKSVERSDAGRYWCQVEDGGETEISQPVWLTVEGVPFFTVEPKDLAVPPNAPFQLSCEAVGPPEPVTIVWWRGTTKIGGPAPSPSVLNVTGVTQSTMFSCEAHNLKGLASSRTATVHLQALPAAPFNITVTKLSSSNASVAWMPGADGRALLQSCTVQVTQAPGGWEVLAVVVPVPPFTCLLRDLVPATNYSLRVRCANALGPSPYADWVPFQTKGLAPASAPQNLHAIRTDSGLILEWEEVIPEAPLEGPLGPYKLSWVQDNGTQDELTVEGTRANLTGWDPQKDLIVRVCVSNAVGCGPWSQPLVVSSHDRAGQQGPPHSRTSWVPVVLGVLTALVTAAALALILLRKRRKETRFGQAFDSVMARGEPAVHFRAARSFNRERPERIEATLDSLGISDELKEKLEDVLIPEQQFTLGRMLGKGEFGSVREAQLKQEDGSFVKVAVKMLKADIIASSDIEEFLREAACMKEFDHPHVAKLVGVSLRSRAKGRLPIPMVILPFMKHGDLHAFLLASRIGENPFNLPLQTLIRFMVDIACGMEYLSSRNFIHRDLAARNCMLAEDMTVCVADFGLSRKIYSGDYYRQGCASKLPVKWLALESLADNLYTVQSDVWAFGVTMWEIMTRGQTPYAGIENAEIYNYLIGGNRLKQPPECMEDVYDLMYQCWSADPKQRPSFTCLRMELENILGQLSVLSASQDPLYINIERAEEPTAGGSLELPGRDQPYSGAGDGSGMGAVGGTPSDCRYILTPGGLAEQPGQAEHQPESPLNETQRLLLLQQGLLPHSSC
# Experiment summary: Microfluidic capillary electrophoresis
# Format: biochemical
// NB: equality with 40 nM counts as FALSE; only IC50 strictly below is TRUE

| Smiles string | Class name |
| --- | --- |
| CCCCNc1ncc2c(-c3ccc(S(=O)(=O)N4CCC(C(=O)N5CCOCC5)CC4)cc3)nn([C@H]3CC[C@H](O)CC3)c2n1 | FALSE |
| CCCCNc1ncc2c(-c3ccc(S(=O)(=O)NC(C)C)cc3)nn([C@H]3CC[C@H](O)CC3)c2n1 | FALSE |
| CCCCNc1ncc2c(-c3ccc(S(=O)(=O)Nc4ccc(F)cc4)cc3)nn([C@H]3CC[C@H](O)CC3)c2n1 | FALSE |
| CCCCNc1ncc2c(-c3ccc(S(=O)(=O)NC4CCCCC4)cc3)nn([C@H]3CC[C@H](O)CC3)c2n1 | FALSE |
| CCCCNc1ncc2c(-c3ccc(NS(C)(=O)=O)cc3)nn([C@H]3CC[C@H](O)CC3)c2n1 | TRUE |
| CCCCNc1ncc2c(-c3ccc(S(N)(=O)=O)cc3)nn([C@H]3CC[C@H](O)CC3)c2n1 | FALSE |
| CCCCNc1ncc2c(-c3ccc(S(=O)(=O)NC)cc3)nn(C[C@H]3CC[C@H](N)CC3)c2n1 | TRUE |
| CCCCNc1ncc2c(-c3ccc(S(=O)(=O)NC4CCCC4)cc3)nn([C@H]3CC[C@H](O)CC3)c2n1 | TRUE |
| CCCCNc1ncc2c(-c3ccc(S(=O)(=O)NCCC)cc3)nn([C@H]3CC[C@H](O)CC3)c2n1 | TRUE |
| CCCCNc1ncc2c(-c3ccc(S(=O)(=O)NC)cc3)nn(C[C@H]3CC[C@H](O)CC3)c2n1 | FALSE |
| CCCCNc1ncc2c(-c3ccc(S(=O)(=O)NC4CCOCC4)cc3)nn([C@H]3CC[C@H](O)CC3)c2n1 | TRUE |

---

# Assay target: Mer (Homo sapiens)
# Sequence (Q12866 21-999): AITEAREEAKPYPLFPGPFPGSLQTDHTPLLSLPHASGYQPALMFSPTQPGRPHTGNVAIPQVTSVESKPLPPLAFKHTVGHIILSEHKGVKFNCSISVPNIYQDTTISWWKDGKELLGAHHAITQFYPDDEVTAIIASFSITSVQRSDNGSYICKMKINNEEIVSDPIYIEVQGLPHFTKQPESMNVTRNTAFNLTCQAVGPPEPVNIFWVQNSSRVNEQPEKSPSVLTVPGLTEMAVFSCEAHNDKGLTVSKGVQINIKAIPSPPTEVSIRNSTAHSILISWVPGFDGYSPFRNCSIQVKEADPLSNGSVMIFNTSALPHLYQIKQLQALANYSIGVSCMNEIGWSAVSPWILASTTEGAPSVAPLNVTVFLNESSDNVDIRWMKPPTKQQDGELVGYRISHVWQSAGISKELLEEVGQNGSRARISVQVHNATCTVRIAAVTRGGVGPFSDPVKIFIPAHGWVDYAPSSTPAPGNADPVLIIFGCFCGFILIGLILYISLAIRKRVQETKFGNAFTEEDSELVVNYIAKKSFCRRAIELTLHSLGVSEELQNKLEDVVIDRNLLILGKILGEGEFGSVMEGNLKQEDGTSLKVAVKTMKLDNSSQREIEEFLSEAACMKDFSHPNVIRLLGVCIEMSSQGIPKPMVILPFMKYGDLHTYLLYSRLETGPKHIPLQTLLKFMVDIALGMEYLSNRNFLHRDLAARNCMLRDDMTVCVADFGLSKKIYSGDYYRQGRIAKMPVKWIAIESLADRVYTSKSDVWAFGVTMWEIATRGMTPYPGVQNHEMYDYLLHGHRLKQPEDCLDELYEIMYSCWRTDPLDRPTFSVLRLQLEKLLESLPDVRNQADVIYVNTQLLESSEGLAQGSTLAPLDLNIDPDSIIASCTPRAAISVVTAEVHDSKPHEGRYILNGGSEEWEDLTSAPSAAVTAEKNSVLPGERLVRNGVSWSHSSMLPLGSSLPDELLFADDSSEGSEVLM
# Experiment summary: Microfluidic capillary electrophoresis
# Assay type: biochemical
pIC50: −log10 of the molar value.
Experimental endpoint: pIC50

| Smiles string | Measured |
| --- | --- |
| CCCCNc1ncc2c(-c3ccc(S(=O)(=O)N4CCC(C(=O)N5CCOCC5)CC4)cc3)nn([C@H]3CC[C@H](O)CC3)c2n1 | 8.85 |
| CCCCNc1ncc2c(-c3ccc(S(N)(=O)=O)cc3)nn([C@H]3CC[C@H](O)CC3)c2n1 | 8.85 |

Origin of the recorded values: paper PMC3720808
